Test system: HepG2 cells
Experiment: HepG2 cytotoxicity
Type: cell-based, human
Conditions: HepG2 cells
Measured HepG2 Cytotoxicity, half-maximal cytotoxicity concentration, listed per entry.
Observed property: HepG2 Cytotoxicity, half-maximal cytotoxicity concentration (µM)

Compound | Result units | Bound operator | Recorded number
CCCCCC1NC(=O)c2csc(n2)C(C)NC(=O)C(Cc2ccc(OC)cc2)N(C)C(=O)C(Cc2ccc(OC)cc2)N(C)C(=O)C(C(C)C)NC(=O)C1C (stereo not shown) [Compound 1, kakeromamide B] | µM | > | 23
CC[C@H](C)[C@@H]1NC(=O)CNC(=O)c2csc(n2)[C@H](C(C)(C)O)OC(=O)C(C)(C)[C@H](CCCC(C)(Cl)Cl)OC(=O)c2csc1n2 | µM | = | 3.3
CO[C@@H]1[C@@H](OC)[C@H](C)O[C@@H](O[C@@H]2C[C@H]3O[C@@](O)(C2)[C@H](C)C(=O)O[C@@H](/C=C/C=C/Br)C[C@@H](C)/C=C\C[C@H](O)[C@@H]3C)[C@@H]1OC [Compound 5, lyngbyaloside] | µM | > | 13
CO[C@@H]1[C@@H](OC)[C@H](C)O[C@@H](O[C@@H]2C[C@@H]3CC[C@H](C)[C@@H](O)C[C@](C)(CC/C=C/C=C/Br)OC(=O)C[C@](O)(C2)O3)[C@@H]1OC [Compound 4, 18E-lyngbyaloside C] | µM | = | 17
